Assay: pH solubility
Type: physicochemical
Conditions: other pH
Quick reference for pH Range where Protein is >80% detected as Soluble and A650 <1 OD: Other among some molecules

| molecule | val |
| --- | --- |
| SEQID-00485: nutritive polypeptide naturally produced in Chickpea, recombinantly expressed in E. coli (protein, listed as Cicer arietinum) MTKTGYINAAFRSSRNNEAYLFINDKYVLLDYAPGTSNDKVLYGPSFVRDGYKSLAKTIFGTYGIDCSFDTEYNEAFIFYENFCARIDYAPHSDKDKIISGPKKIADMFPFFKGTVFENGIDAAFRSTKGKEVYLFKGDKYARIDYLTNRLVQNIKSISDGFPCLRGTIFEAGMDSAFASHKTNEAYLFKGEYYARINFTPGSTNDIMGGVKKTLDYWPSLRGIIPLE | 2.8 |
| SEQID-00502: protein of the 168 nutritive polypeptide library (protein, Glycine max, protein of the 168 nutritive polypeptide library) MASQSNTKSVHDFTVKDARGNNVNLADYKGKVLLIVNVASQCGLTNSNYTELNQLYEKYKGKGLEILAFPCNQFGAQEPGTNEEIVEFACTRFKAEFPIFDKVDVNGDNAAPLYKFLKSSKGGLFGDSIKWNFSKFLVDKDGNVVDRYAPTTSPLSIEKDIKKLLDA | 2.8 |

Measured pH Range where Protein is >80% detected as Soluble and A650 <1 OD: Other of SEQID-00510: nutritive polypeptide naturally produced in Turkey, recombinantly expressed in E. coli (protein, Meleagris gallopavo, nutritive polypeptide naturally produced in Turkey, recombinantly expressed in E. coli) MVPIAEKMAEKQEEPSNTQNGEPDNAEEGEGKKKKKVKREDLPPFEIVTGERLPAIFFKFQFRNVEYSSGRNKTFLCYVVETQGKESTTSRGYLEDEHAASHAEIAFFNTILPKCESSLRYNITWYVSSSPCVTCADRISETLRKNKNLRLTIMVGRLFMWEEPEMQAALKKMKSAGCKLRIMKPQDFEYVWQNFVEQEEGEEAKAFVPWEDIQENFQYYEEKLAEILQ : 2.8
